# target.or.test.system: Serotonin 1a (5-HT1a) receptor/Adrenergic receptor alpha-1 (Rattus norvegicus) (UniProt P15823+P23944+P43140+P19327)
# test.name: Selectivity for 5-HT1A receptor of rat hippocampus and alpha-1 adrenergic receptor of rat cortex.
# Format: tissue-based
Friendly reminder: Selectivity below 10 is Condition met, at or above is Condition not met.

Please review the following examples before continuing.
{"columns": ["molecule", "answer.label"],
 "data": [
  ["O=C1CCOc2c(OCCNCCCCc3ccc4c(c3)OCO4)cc(F)cc21", "Condition not met"],
  ["CCCN(CCCCc1ccc2c(c1)OCO2)CCOc1cc(F)cc2c1OCCC2=O", "Condition not met"],
  ["COc1ccc(CCCCCCNCCOc2cc(F)cc3c2OC(C)CC3)cc1 (centres undefined)", "Condition met"],
  ["N#Cc1ccc(CCCCNCCOc2cc(F)cc3c2OCCC3=O)cc1", "Condition not met"],
  ["CCCOc1ccc(CCCCNCCOc2cc(F)cc3c2OCCC3=O)cc1", "Condition not met"]
]}

For this molecule, is Selectivity lower than 10? COc1cccc(CCCCNCCOc2cc(F)cc3c2OCCC3=O)c1
Condition met

Given COc1ccc(CCCCNCCOc2cc(F)cc3c2OCCC3=O)cc1 , is recorded Selectivity strictly lower than 10?
Condition not met

Hello, is Selectivity of the following molecule strictly smaller than 10? CCOc1ccc(CCCCNCCOc2cc(F)cc3c2OCCC3=O)cc1
Condition not met

I'd appreciate it if you could check whether COc1ccc(CCCCNCCOc2cc(F)cc3c2OCCC3OC)cc1 (centres undefined) has Selectivity smaller than 10.
Condition met
